- Tested on: Plasmodium falciparum
- Assay text: Antiprotozoal activity against chloroquine and pyrimethamine-resistant Plasmodium falciparum K1 after 72 hrs by [3H]hypoxanthine uptake
- Type: functional, organism-based
Below, each entry is listed alongside its reported IC50.

>  <Structure>
CNC(=N)Nc1ccc(-c2ccc(-c3ccc(NC(=N)NC)cn3)cc2)nc1

>  <Result units>
nM

>  <IC50>
54

$$$$
>  <Structure>
CCOC(=O)/N=C(\N)Nc1ccc(-c2ccc(-c3ccc(N/C(N)=N/C(=O)OCC)cn3)cc2)nc1

>  <Result units>
nM

>  <IC50>
1.9

$$$$
>  <Structure>
CCOC(=O)/N=C(/Nc1ccc(-c2ccc(-c3ccc(N/C(=N/C(=O)OCC)NC(C)C)cc3)cc2)cc1)NC(C)C

>  <Result units>
nM

>  <IC50>
4.5

$$$$
>  <Structure>
CCOC(=O)/N=C(\NC)Nc1ccc(-c2ccc(-c3ccc(N/C(=N/C(=O)OCC)NC)cc3)cc2)cc1

>  <Result units>
nM

>  <IC50>
8.9

$$$$
>  <Structure>
CNC(=N)Nc1ccc(-c2ccc(-c3ccc(NC(=N)NC)cc3)cc2)cc1

>  <Result units>
nM

>  <IC50>
7

$$$$
>  <Structure>
CC(C)NC(=N)Nc1ccc(-c2ccc(-c3ccc(NC(=N)NC(C)C)cc3)cc2)cc1

>  <Result units>
nM

>  <IC50>
14

$$$$
>  <Structure>
N=C(N)c1ccc(-c2ccc(-c3ccc(C(=N)N)cc3)cc2)cc1

>  <Result units>
nM

>  <IC50>
1

$$$$
>  <Structure>
CC(C)NC(=N)Nc1ccc(-c2ccc(-c3ccc(NC(=N)NC(C)C)cn3)cc2)nc1

>  <Result units>
nM

>  <IC50>
393

$$$$
>  <Structure>
N=C(N)Nc1ccc(-c2ccc(-c3ccc(NC(=N)N)cn3)cc2)nc1

>  <Result units>
nM

>  <IC50>
151

$$$$
>  <Structure>
CCOC(=O)/N=C(\N)Nc1ccc(-c2ccc(-c3ccc(N/C(N)=N/C(=O)OCC)cc3)cc2)cc1

>  <Result units>
nM

>  <IC50>
1.7

$$$$
>  <Structure>
N=C(N)Nc1ccc(-c2ccc(-c3ccc(NC(=N)N)cc3)cc2)cc1

>  <Result units>
nM

>  <IC50>
27

$$$$
>  <Structure>
CCOC(=O)/N=C(\NC)Nc1ccc(-c2ccc(-c3ccc(N/C(=N/C(=O)OCC)NC)cn3)cc2)nc1

>  <Result units>
nM

>  <IC50>
2.6

$$$$
>  <Structure>
CCOC(=O)/N=C(/Nc1ccc(-c2ccc(-c3ccc(N/C(=N/C(=O)OCC)NC(C)C)cn3)cc2)nc1)NC(C)C

>  <Result units>
nM

>  <IC50>
2.9

$$$$

----------
- System: L6
- Assay text: Cytotoxicity against rat L6 cells after 72 hrs by alamar blue assay
- Assay type: cell-based
- Measurement context: L6, 72 h
pIC50: −log10 of the molar value.

>  <Structure>
N=C(N)Nc1ccc(-c2ccc(-c3ccc(NC(=N)N)cn3)cc2)nc1

>  <Study system>
L6

>  <Measurement qualifier>
=

>  <pIC50>
3.82

$$$$
>  <Structure>
CNC(=N)Nc1ccc(-c2ccc(-c3ccc(NC(=N)NC)cc3)cc2)cc1

>  <Study system>
L6

>  <Measurement qualifier>
=

>  <pIC50>
4.19

$$$$
>  <Structure>
CCOC(=O)/N=C(/Nc1ccc(-c2ccc(-c3ccc(N/C(=N/C(=O)OCC)NC(C)C)cc3)cc2)cc1)NC(C)C

>  <Study system>
L6

>  <Measurement qualifier>
=

>  <pIC50>
5.28

$$$$
>  <Structure>
CNC(=N)Nc1ccc(-c2ccc(-c3ccc(NC(=N)NC)cn3)cc2)nc1

>  <Study system>
L6

>  <Measurement qualifier>
<

>  <pIC50>
3.79

$$$$
>  <Structure>
CCOC(=O)/N=C(\NC)Nc1ccc(-c2ccc(-c3ccc(N/C(=N/C(=O)OCC)NC)cn3)cc2)nc1

>  <Study system>
L6

>  <Measurement qualifier>
<

>  <pIC50>
3.77

$$$$
>  <Structure>
CCOC(=O)/N=C(\N)Nc1ccc(-c2ccc(-c3ccc(N/C(N)=N/C(=O)OCC)cn3)cc2)nc1

>  <Study system>
L6

>  <Measurement qualifier>
<

>  <pIC50>
3.74

$$$$
>  <Structure>
CCOC(=O)/N=C(\NC)Nc1ccc(-c2ccc(-c3ccc(N/C(=N/C(=O)OCC)NC)cc3)cc2)cc1

>  <Study system>
L6

>  <Measurement qualifier>
=

>  <pIC50>
5.24

$$$$
>  <Structure>
N=C(N)Nc1ccc(-c2ccc(-c3ccc(NC(=N)N)cc3)cc2)cc1

>  <Study system>
L6

>  <Measurement qualifier>
=

>  <pIC50>
4.60

$$$$
>  <Structure>
CC(C)NC(=N)Nc1ccc(-c2ccc(-c3ccc(NC(=N)NC(C)C)cc3)cc2)cc1

>  <Study system>
L6

>  <Measurement qualifier>
=

>  <pIC50>
4.66

$$$$
>  <Structure>
CCOC(=O)/N=C(\N)Nc1ccc(-c2ccc(-c3ccc(N/C(N)=N/C(=O)OCC)cc3)cc2)cc1

>  <Study system>
L6

>  <Measurement qualifier>
<

>  <pIC50>
3.74

$$$$
>  <Structure>
CC(C)NC(=N)Nc1ccc(-c2ccc(-c3ccc(NC(=N)NC(C)C)cn3)cc2)nc1

>  <Study system>
L6

>  <Measurement qualifier>
=

>  <pIC50>
4.05

$$$$
>  <Structure>
CCOC(=O)/N=C(/Nc1ccc(-c2ccc(-c3ccc(N/C(=N/C(=O)OCC)NC(C)C)cn3)cc2)nc1)NC(C)C

>  <Study system>
L6

>  <Measurement qualifier>
<

>  <pIC50>
3.87

$$$$

All values here come from ChEMBL document CHEMBL1154490.
